# Study System: rat wild-type FAAH (FAAH^wt) (Rattus norvegicus)
# Construct: expressed in transfected cells; host or cells: HeLa cells, pcDNA4 plasmid, lysate
# Method Description: Inhibition of [3H]AEA hydrolysis in lysates of HeLa cells expressing wild-type FAAH
# Assay type: biochemical
# Setup Conditions: FAAH^wt + empty vector (0.36 μg/assay) lysates, 18 h, 0.5 μM [3H]AEA; read-out: IC50
Measurement Name: IC50 (µM)
Answer format: numeric, µM implied, no suffix.

Entry Cc1cccnc1NC(=O)[C@H](C)c1ccc(-c2ccccc2)c(F)c1 [(R)-Flu-AM1] needs its IC50 filled in; supply it.
8

###

# Study System: rat brain FAAH (Rattus norvegicus)
# Construct: from tissue; host or cells: rat brain (minus cerebellum), washed membrane pellet
# Method Description: Inhibition of [3H]AEA hydrolysis in rat brain homogenates
# Assay type: biochemical
# Setup Conditions: median of Dixon plot intersections, 0.5–4 μM [3H]AEA; read-out: Ki (Dixon plot)
Measurement Name: Ki (µM)
Answer format: numeric, µM implied, no suffix.

Completed entries (count: 3):
Cc1cccnc1NC(=O)[C@@H](C)c1ccc(CC(C)C)cc1 [(S)-Ibu-AM5]: 0.89
Cc1cccnc1NC(=O)[C@H](C)c1ccc(CC(C)C)cc1 [(R)-Ibu-AM5]: 9.8
Cc1cccnc1NC(=O)[C@H](C)c1ccc(-c2ccccc2)c(F)c1 [(R)-Flu-AM1]: 0.28

# evaluate next
Entry Cc1cccnc1NC(=O)[C@@H](C)c1ccc(-c2ccccc2)c(F)c1 [(S)-Flu-AM1] needs its Ki filled in; supply it.
0.86

###

# Study System: rat brain FAAH (Rattus norvegicus, UniProt P97612)
# Construct: from tissue; host or cells: rat brain (minus cerebellum), washed membrane pellet
# Sequence (P97612 1-579): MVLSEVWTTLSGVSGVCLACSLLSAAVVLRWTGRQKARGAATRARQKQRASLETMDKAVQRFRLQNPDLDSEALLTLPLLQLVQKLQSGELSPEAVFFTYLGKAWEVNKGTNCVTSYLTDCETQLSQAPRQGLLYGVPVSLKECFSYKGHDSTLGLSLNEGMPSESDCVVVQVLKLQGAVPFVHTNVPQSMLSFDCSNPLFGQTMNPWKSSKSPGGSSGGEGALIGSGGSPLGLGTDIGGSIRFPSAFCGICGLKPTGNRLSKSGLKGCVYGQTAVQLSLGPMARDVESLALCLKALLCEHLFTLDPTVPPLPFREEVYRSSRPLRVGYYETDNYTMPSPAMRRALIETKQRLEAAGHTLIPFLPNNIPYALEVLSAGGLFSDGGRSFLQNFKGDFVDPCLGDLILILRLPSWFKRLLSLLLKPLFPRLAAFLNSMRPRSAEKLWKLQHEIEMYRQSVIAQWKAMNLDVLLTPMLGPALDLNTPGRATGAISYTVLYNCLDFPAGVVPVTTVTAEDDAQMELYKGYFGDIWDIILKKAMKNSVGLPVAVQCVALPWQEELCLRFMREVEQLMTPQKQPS
# Method Description: Inhibition of [3H]AEA hydrolysis in rat brain homogenates
# Assay type: biochemical
# Setup Conditions: rat brain homogenates, 0.5 μM [3H]AEA; read-out: pI50 (converted)
Measurement Name: IC50
Please append the unit to your numeric answer.

Entry Cc1cccnc1NC(=O)[C@H](C)c1ccc(CC(C)C)cc1 [(R)-Ibu-AM5] needs its IC50 filled in; supply it.
5620 nM

Entry Cc1cccnc1NC(=O)Cc1ccc(CC(C)C)cc1 needs its IC50 filled in; supply it.
67600 nM

###

# Study System: rat wild-type FAAH (FAAH^wt) (Rattus norvegicus, UniProt P97612)
# Construct: expressed in transfected cells; host or cells: HeLa cells, pcDNA4 plasmid, lysate
# Method Description: Inhibition of [3H]AEA hydrolysis in lysates of HeLa cells expressing wild-type FAAH
# Format: biochemical
# Setup Conditions: preliminary experiments, another batch of wild-type FAAH, 1.5–2 μg/assay, 20 min at 37°C; read-out: potencies
# IC50 listing for each entry below
Answer format: numeric, nM implied, no suffix.

Cc1cccnc1NC(=O)[C@H](C)c1ccc(CC(C)C)cc1 [(R)-Ibu-AM5]: 8800
Cc1cccnc1NC(=O)[C@H](C)c1ccc(-c2ccccc2)c(F)c1 [(R)-Flu-AM1]: 1600
Cc1cccnc1NC(=O)[C@@H](C)c1ccc(CC(C)C)cc1 [(S)-Ibu-AM5]: 530

# evaluate next
Entry Cc1cccnc1NC(=O)[C@@H](C)c1ccc(-c2ccccc2)c(F)c1 [(S)-Flu-AM1] needs its IC50 filled in; supply it.
2400

###

# pIC50 listing for each entry below
# Study System: mouse brain FAAH (Mus musculus)
# Construct: from tissue; host or cells: mouse brain (minus cerebellum), washed membrane pellet
# Sequence (O08914 whole entry): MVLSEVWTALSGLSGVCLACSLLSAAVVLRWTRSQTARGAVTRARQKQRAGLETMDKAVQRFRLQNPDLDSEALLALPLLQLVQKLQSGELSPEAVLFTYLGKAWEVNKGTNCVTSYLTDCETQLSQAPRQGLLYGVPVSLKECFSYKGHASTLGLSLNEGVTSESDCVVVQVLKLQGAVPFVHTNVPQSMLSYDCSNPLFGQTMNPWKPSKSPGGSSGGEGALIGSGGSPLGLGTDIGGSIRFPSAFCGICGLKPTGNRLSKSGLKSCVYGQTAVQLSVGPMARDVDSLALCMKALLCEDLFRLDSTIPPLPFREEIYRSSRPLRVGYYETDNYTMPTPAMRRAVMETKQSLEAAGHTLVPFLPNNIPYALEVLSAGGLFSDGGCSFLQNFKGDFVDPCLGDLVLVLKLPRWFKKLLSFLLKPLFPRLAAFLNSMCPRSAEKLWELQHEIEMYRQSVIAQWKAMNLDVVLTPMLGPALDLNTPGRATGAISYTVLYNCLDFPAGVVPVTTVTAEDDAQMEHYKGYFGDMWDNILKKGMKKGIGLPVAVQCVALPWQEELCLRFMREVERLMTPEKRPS
# Method Description: Inhibition of [3H]AEA hydrolysis in mouse brain homogenates
# Type: biochemical
# Setup Conditions: 0.5 μM [3H]AEA, read-out: IC50
Scale for pIC50: -log10 of concentration given in mol/L; no unit attached.

Entry Cc1cccnc1NC(=O)[C@@H](C)c1ccc(CC(C)C)cc1 [(S)-Ibu-AM5] needs its pIC50 filled in; supply it.
5.15

Entry Cc1cccnc1NC(=O)[C@H](C)c1ccc(CC(C)C)cc1 [(R)-Ibu-AM5] needs its pIC50 filled in; supply it.
4.28

###

# nH (Hill slope) listing for each entry below
# Study System: rat brain FAAH (Rattus norvegicus)
# Construct: from tissue; host or cells: rat brain (minus cerebellum), washed membrane pellet
# Sequence (P97612 1-579): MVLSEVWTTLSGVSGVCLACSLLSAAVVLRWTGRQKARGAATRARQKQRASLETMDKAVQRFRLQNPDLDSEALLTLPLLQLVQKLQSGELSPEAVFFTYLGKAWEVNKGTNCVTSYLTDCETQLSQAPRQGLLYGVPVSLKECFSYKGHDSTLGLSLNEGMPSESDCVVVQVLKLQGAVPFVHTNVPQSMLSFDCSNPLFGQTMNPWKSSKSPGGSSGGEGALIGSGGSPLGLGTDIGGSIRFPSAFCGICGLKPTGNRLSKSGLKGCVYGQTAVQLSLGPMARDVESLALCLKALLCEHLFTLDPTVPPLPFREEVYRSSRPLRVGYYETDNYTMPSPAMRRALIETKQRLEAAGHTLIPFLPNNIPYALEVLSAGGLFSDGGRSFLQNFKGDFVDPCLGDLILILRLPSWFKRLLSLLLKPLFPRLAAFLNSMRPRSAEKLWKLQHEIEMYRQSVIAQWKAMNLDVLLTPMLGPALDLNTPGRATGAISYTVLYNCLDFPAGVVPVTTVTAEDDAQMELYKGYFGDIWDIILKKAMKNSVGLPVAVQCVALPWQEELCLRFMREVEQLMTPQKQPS
# Method Description: Inhibition of [3H]AEA hydrolysis in rat brain homogenates
# Assay type: biochemical
# Setup Conditions: rat brain homogenates, 0.5 μM [3H]AEA

Completed entries (count: 3):
Cc1cccnc1NC(=O)[C@H](C)c1ccc(-c2ccccc2)c(F)c1 [(R)-Flu-AM1]: 0.90±0.04
Cc1cccnc1NC(=O)[C@@H](C)c1ccc(-c2ccccc2)c(F)c1 [(S)-Flu-AM1]: 0.94±0.04
Cc1cccnc1NC(=O)[C@@H](C)c1ccc(CC(C)C)cc1 [(S)-Ibu-AM5]: 0.81±0.08

Entry CC(C(=O)O)c1ccc2c(c1)[nH]c1ccc(Cl)cc12 (centres unmarked) [Carprofen, reference compound] needs its nH (Hill slope) filled in; supply it.
1.66±0.13

Entry Cc1cccnc1NC(=O)[C@H](C)c1ccc(CC(C)C)cc1 [(R)-Ibu-AM5] needs its nH (Hill slope) filled in; supply it.
1.05±0.10

###

# Study System: mouse brain FAAH (Mus musculus)
# Construct: from tissue; host or cells: mouse brain (minus cerebellum), washed membrane pellet
# Method Description: Inhibition of [3H]AEA hydrolysis in mouse brain homogenates
# Type: biochemical
# Setup Conditions: 0.5 μM [3H]AEA
Measurement Name: nH (Hill slope)
No unit in the answer, only the number.

Cc1cccnc1NC(=O)[C@@H](C)c1ccc(-c2ccccc2)c(F)c1 [(S)-Flu-AM1]: 1.31

Determine reported nH (Hill slope) for Cc1cccnc1NC(=O)[C@H](C)c1ccc(CC(C)C)cc1 [(R)-Ibu-AM5] ; test system: mouse brain FAAH (Mus musculus).
1.50

Determine reported nH (Hill slope) for Cc1cccnc1NC(=O)[C@@H](C)c1ccc(CC(C)C)cc1 [(S)-Ibu-AM5] ; test system: mouse brain FAAH (Mus musculus).
1.33

Determine reported nH (Hill slope) for Cc1cccnc1NC(=O)[C@H](C)c1ccc(-c2ccccc2)c(F)c1 [(R)-Flu-AM1] ; test system: mouse brain FAAH (Mus musculus).
0.78

###

# Study System: rat brain FAAH (Rattus norvegicus, UniProt P97612)
# Construct: from tissue; host or cells: rat brain (minus cerebellum), washed membrane pellet
# Method Description: Inhibition of [3H]AEA hydrolysis in rat brain homogenates
# Type: biochemical
# Setup Conditions: rat brain homogenates, 0.5 μM [3H]AEA; read-out: pI50 (converted)
Measurement Name: IC50 (µM)
Answer format: numeric, µM implied, no suffix.

Completed entries (count: 3):
Cc1cccnc1NC(=O)[C@H](C)c1ccc(-c2ccccc2)c(F)c1 [(R)-Flu-AM1]: 0.741
Cc1cccnc1NC(=O)[C@@H](C)c1ccc(CC(C)C)cc1 [(S)-Ibu-AM5]: 0.589
Cc1cccnc1NC(=O)[C@@H](C)c1ccc(-c2ccccc2)c(F)c1 [(S)-Flu-AM1]: 1

Entry Cc1cccnc1NC(=O)C(C)c1ccc(CC(C)C)cc1 (racemic) [racemic Ibu-AM5] needs its IC50 filled in; supply it.
1.2
